Tested on: HT29 colon
ASSAY SUMMARY: NCI-60 one-dose screen, 48 h
SETUP CONDITIONS: 10 µM unless noted
Compounds without any hit were thinned out: in the full panel of roughly 83,000, 20% have a hit. Calls of active or inactive are those of the source. The calls were made as follows: active = growth percent below 10; inactive = the rest.
A correct response names exactly one class from active, inactive

CNC(=O)c1cc(Oc2ccc3nc(NC(=O)c4ccc5ncccc5c4)sc3c2)ccn1 | inactive
Cc1cc(C)nc(SCC(=O)Nc2cccc(N=Cc3ccccc3O)c2)n1 | inactive
CCOC(=O)C(C(C)=O)c1nc2sc3cc(Cl)c(Cl)cc3n2c(=O)c1C#N (stereo not drawn) | inactive
O=C(NCCO)c1cccnc1 | inactive
CC(C)C1=NOC(=O)C1=Cc1cn(-c2ccccc2)nc1-c1ccc(Br)cc1 | inactive

What is the recorded call for this compound in the test? "O=C(O)c1cccc(CN2CCN(c3cc4c(cc3F)c(=O)c(C(=O)O)cn4C3CC3)CC2)c1O" inactive

What is the recorded call for this compound in the test? CCOC(=O)c1nn(C2CCCCO2)c2ccc(NC(=O)CN3CCOCC3)cc12 (stereo not drawn) inactive

What is the recorded call for this compound in the test? "O=C(N[C@@H]1CCCc2ccccc21)[C@H](CCC(=O)N1CCN(C2CCCCC2)CC1)N1C(=O)[C@@H](N2C(=O)OC[C@@H]2c2ccccc2)[C@H]1/C=C/c1ccccc1" active

----------
Below: a set of entries, each annotated with reported growth.
Test system: HT29 colon
ASSAY SUMMARY: NCI-60 one-dose screen, 48 h (100 = growth as untreated, 0 = no growth, -100 = all killed)
SETUP CONDITIONS: 10 µM unless noted
The panel holds about 83,000 compounds, 20% with a hit somewhere; the sample as a whole holds those more often. Calls of active or inactive are those of the source. How the source made its calls: active means growth percent below 10; inactive means the rest.

Examples with answers:
O=C1Nc2ccccc2/C1=C/C(=O)c1ccc(N2CCCCC2)cc1 | 32.8% (inactive)
Oc1ccc(N=Nc2nccs2)c(O)c1 | 51.5% (inactive)
Cc1cc(C)c(S(=O)(=O)/N=c2/n(-c3ccccc3)nc3n2CCN3C2=NCCN2)c(C)c1 | 58% (inactive)
C[C@@H]1C[C@H]2C(=O)O[C@@H](C)[C@H](NC(=O)[C@H](Cc3cc(F)cc(F)c3)NC(=O)Nc3ccc(Cl)cc3F)C(=O)N3C[C@H](O)C[C@H]3C(=O)N3CCN(C)C[C@H]3C(=O)N[C@@H](C)C(=O)N2C1 | 32.5% (inactive)
CCCCCCCCN(CCCCCCCC)CC(O)c1ccc(Cl)c(C)c1Cl (stereo not drawn) | 42.2% (inactive)

The recorded growth for entry "COc1cc(OC)cc(C(=O)Nc2cc(-c3cccnc3)nc(NCCCN3CCOCC3)n2)c1" equals 85.2% (inactive)

The recorded growth for entry CCN(CCNc1ccc(C)c2sc3cc(Cl)ccc3c(=O)c12)CC(C)O (stereo not drawn) equals -28.5% (active)

The recorded growth for entry "C=C(C)[C@@H]1CC[C@]2(C)[C@H](CC[C@@H]3[C@@H]([C@@](C)(O)CCC=C(C)C)CC[C@]32C)[C@@]1(C)CCC(=O)O" equals 2.65% [100 µM] (active)

----------
Test system: MDA-MB-231 breast
ASSAY SUMMARY: NCI-60 one-dose screen, 48 h
SETUP CONDITIONS: 10 µM unless noted
About 83,000 compounds went through this panel and 20% of them were active in at least one assay; those are over-represented in the sample as a whole. Activity calls are given as the source filed them. Rule for the calls: active = growth percent below 10; inactive = the rest.
A correct response names exactly one class from YES = active, NO = inactive

Reference set, count: 10
N#CC1C(=O)NC(c2ccccc2[N+](=O)[O-])c2sc3c(F)cccc3c21 (stereo not drawn) | NO
CC1(C)OC2[C@@H](CNC(=O)NC(=O)NC(=O)CI)O[C@@H](n3cnc4c(NC(=O)Nc5ccccc5)ncnc43)[C@H]2O1 (stereo partly drawn) | NO
CS(=O)(=O)c1cccnn1 | NO
O=c1cc(-c2ccccc2)oc2c(O)c(O)ccc12 | NO
O=[N+]([O-])c1cccc(/C=C/c2ccc3ccccc3n2)c1 | NO
COc1ccc(C(=O)CSc2nccc(Nc3ccc(C(=O)O)cc3)n2)cc1 | NO
c1ccc(-c2nnc(-c3c[nH]c4ncccc34)s2)cc1 | NO
CC(=O)Nc1ccc2nc3ccc(NC(C)=O)cc3[n+](-c3ccccc3)c2c1 | NO
CC(C)(C)c1cc(C(=O)Nc2cc3ccccc3cc2C(=O)NCCN)cc(C(C)(C)C)c1 | YES
CC(C)=CC/C=C(/C)[C@H]1CC[C@]2(C)[C@@H]1CC[C@@H]1[C@@]3(C)CCCNC(C)(C)[C@@H]3CC[C@]12C | YES

What is the recorded call for this compound in the test? "CC(=O)OC[C@]12CC[C@@H]([C@@H](C)C(N)=O)[C@@H]1[C@H]1CC[C@@H]3[C@@]4(C)CC[C@H](OC(C)=O)C(C)(C)[C@@H]4CC[C@@]3(C)[C@]1(C)CC2" YES

What is the recorded call for this compound in the test? CC(C)[N+](C)(C)CC(O)COc1cccc2ccccc12 (stereo not drawn) NO

What is the recorded call for this compound in the test? "Cn1cc(-c2noc(C(=O)c3cn(C)c4ncc(Br)cc34)n2)c2ccccc21" NO

What is the recorded call for this compound in the test? "CC[C@]12C=CCN3CC[C@@]4(c5ccc(OC)cc5N(C)[C@H]4[C@@](O)(C(=O)OC)[C@@H]1OC(=O)CCC(=O)O[C@H]1CC[C@H]4[C@@H]5CCC6=CC(=O)CC[C@@H]6[C@H]5CC[C@]14C)[C@@H]32" YES

What is the recorded call for this compound in the test? "O=C(CSc1nccc(Nc2ccc(S(=O)(=O)Nc3ccccn3)cc2)n1)c1ccc(Cl)cc1" NO

What is the recorded call for this compound in the test? "COc1cc2c(cc1OCCCCCOc1ccc(-n3c(C)nc4ccccc4c3=O)cc1)N=C[C@@H]1CCCN1C2=O" YES

What is the recorded call for this compound in the test? "C1=C[C@H]2O[C@@H]1c1ccc3[nH]ccc3c12" NO

What is the recorded call for this compound in the test? "CCOC(=O)n1cc(C2=C(c3ccc(OC)c(OC)c3)COC2=O)c2ccccc21" NO
